EXPERIMENT SUMMARY: clinical
COND: human, in vivo, 200 mg/m2, AUC0-8h
READOUT NAME: AUC(0-t) (µM·h)
Entry rule: numbers only, all in µM·h.

Which AUC(0-t) value is on record for C=CCn1c(=O)c2cnc(Nc3ccc(N4CCN(C)CC4)cc3)nc2n1-c1cccc(C(C)(C)O)n1 [adavosertib] ? 9.63

----------
EXPERIMENT SUMMARY: clinical
COND: human, in vivo, 200 mg/m2, Tmax
READOUT NAME: Tmax (h)
# unit: h | format: bare number

What value of Tmax has been recorded for this entry: C=CCn1c(=O)c2cnc(Nc3ccc(N4CCN(C)CC4)cc3)nc2n1-c1cccc(C(C)(C)O)n1 [adavosertib] 2.6
